Catalogue of melting temperature readings, one per entry.
Test system: HeLa Kyoto;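 note: HeLa Kyoto cells synchronized by double thymidine or nocodazole block, proteins quantified by TMT10plex mass spectrometry, three independent biological replicates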
Assay: melting temperature (median over replicates), in situ; higher = more thermally stable
Details: cell cycle stage: G1/S

sequence record	melting temperature / °C
MDMKRRIHLELRNRTPAAVRELVLDNCKSNDGKIEGLTAEFVNLEFLSLINVGLISVSNLPKLPKLKKLELSENRIFGGLDMLAEKLPNLTHLNLSGNKLKDISTLEPLKKLECLKSLDLFNCEVTNLNDYRESVFKLLPQLTYLDGYDREDQEAPDSDAEVDGVDEEEEDEEGEDEEDEDDEDGEEEEFDEEDDEDEDVEGDEDDDEVSEEEEEFGLDEEDEDEDEDEEEEEGGKGEKRKRETDDEGEDD [ANP32B]	48.5
MLSAASRVVSRAAVHCALRSPPPEARALAMSRPPPPRVASVLGTMEMGRRMDAPASAAAVRAFLERGHTELDTAFMYSDGQSETILGGLGLGLGGGDCRVKIATKANPWDGKSLKPDSVRSQLETSLKRLQCPQVDLFYLHAPDHGTPVEETLHACQRLHQEGKFVELGLSNYASWEVAEICTLCKSNGWILPTVYQGMYNATTRQVETELFPCLRHFGLRFYAYNPLAGGLLTGKYKYEDKDGKQPVGRFFGNSWAETYRNRFWKEHHFEAIALVEKALQAAYGASAPSVTSAALRWMYHHSQLQGAHGDAVILGMSSLEQLEQNLAATEEGPLEPAVVDAFNQAWHLVAHECPNYFR [AKR7A2]	53.1
MAAVDIRDNLLGISWVDSSWIPILNSGSVLDYFSERSNPFYDRTCNNEVVKMQRLTLEHLNQMVGIEYILLHAQEPILFIIRKQQRQSPAQVIPLADYYIIAGVIYQAPDLGSVINSRVLTAVHGIQSAFDEAMSYCRYHPSKGYWWHFKDHEEQDKVRPKAKRKEEPSSIFQRQRVDALLLDLRQKFPPKFVQLKPGEKPVPVDQTKKEAEPIPETVKPEEKETTKNVQQTVSAKGPPEKRMRLQ [MED6]	47.9
MATSVLCCLRCCRDGGTGHIPLKEMPAVQLDTQHMGTDVVIVKNGRRICGTGGCLASAPLHQNKSYFEFKIQSTGIWGIGVATQKVNLNQIPLGRDMHSLVMRNDGALYHNNEEKNRLPANSLPQEGDVVGITYDHVELNVYLNGKNMHCPASGIRGTVYPVVYVDDSAILDCQFSEFYHTPPPGFEKILFEQQIF [SPRYD7]	52.6
MVAVLGGRGVLRLRLLLSALKPGIHVPRAGPAAAFGTSVTSAKVAVNGVQLHYQQTGEGDHAVLLLPGMLGSGETDFGPQLKNLNKKLFTVVAWDPRGYGHSRPPDRDFPADFFERDAKDAVDLMKALKFKKVSLLGWSDGGITALIAAAKYPSYIHKMVIWGANAYVTDEDSMIYEGIRDVSKWSERTRKPLEALYGYDYFARTCEKWVDGIRQFKHLPDGNICRHLLPRVQCPALIVHGEKDPLVPRFHADFIHKHVKGSRLHLMPEGKHNLHLRFADEFNKLAEDFLQ [BPHL]	52.7
MSLCSPTHSAEMSLFLQGPEEMLPLSSEGSEMGSEKEQSPEPHLPEEGEGGKPWRVDDSEGSWIPPGEKEHGQESLSDELQETHPKKPWQKVTVRARELGDPIAHPRHEADEKPFICAQCGKTFNNTSNLRTHQRIHTGEKPYKCSECGKSFSRSSNRIRHERIHLEEKHYKCPKCQESFRRRSDLTTHQQDHLGKRPYRCDICGKSFSQSATLAVHHRTHLEPAPYICCECGKSFSNSSSFGVHHRTHTGERPYECTECGRTFSDISNFGAHQRTHRGEKPYRCTVCGKHFSRSSNLIRHQKTHLGEQAGKDSS [ZNF691]	54.9
MGHPPLLPLLLLLHTCVPASWGLRCMQCKTNGDCRVEECALGQDLCRTTIVRLWEEGEELELVEKSCTHSEKTNRTLSYRTGLKITSLTEVVCGLDLCNQGNSGRAVTYSRSRYLECISCGSSDMSCERGRHQSLQCRSPEEQCLDVVTHWIQEGEEGRPKDDRHLRGCGYLPGCPGSNGFHNNDTFHFLKCCNTTKCNEGPILELENLPQNGRQCYSCKGNSTHGCSSEETFLIDCRGPMNQCLVATGTHEPKNQSYMVRGCATASMCQHAHLGDAFSMNHIDVSCCTKSGCNHPDLDVQYRSGAAPQPGPAHLSLTITLLMTARLWGGTLLWT [PLAUR]	52.8
MDFENLFSKPPNPALGKTATDSDERIDDEIDTEVEETQEEKIKLECEQIPKKFRHSAISPKSSLHRKSRSKDYDVYSDNDICSQESEDNFAKELQQYIQAREMANAAQPEESTKKEGVKDTPQAAKQKNKNLKAGHKNGKQKKMKRKWPGPGNKGSNALLRNSGSQEEDGKPKEKQQHLSQAFINQHTVERKGKQICKYFLERKCIKGDQCKFDHDAEIEKKKEMCKFYVQGYCTRGENCLYLHNEYPCKFYHTGTKCYQGEYCKFSHAPLTPETQELLAKVLDTEKKSCK [ZC3H8]	55.1
MCGRTSCHLPRDVLTRACAYQDRRGQQRLPEWRDPDKYCPSYNKSPQSNSPVLLSRLHFEKDADSSERIIAPMRWGLVPSWFKESDPSKLQFNTTNCRSDTVMEKRSFKVPLGKGRRCVVLADGFYEWQRCQGTNQRQPYFIYFPQIKTEKSGSIGAADSPENWEKVWDNWRLLTMAGIFDCWEPPEGGDVLYSYTIITVDSCKGLSDIHHRMPAILDGEEAVSKWLDFGEVSTQEALKLIHPTENITFHAVSSVVNNSRNNTPECLAPVDLVVKKELRASGSSQRMLQWLATKSPKKEDSKTPQKEESDVPQWSSQFLQKSPLPTKRGTAGLLEQWLKREKEEEPVAKRPYSQ [HMCES]	48.6
MTLQWAAVATFLYAEIGLILIFCLPFIPPQRWQKIFSFNVWGKIATFWNKAFLTIIILLIVLFLDAVREVRKYSSVHTIEKSSTSRPDAYEHTQMKLFRSQRNLYISGFSLFFWLVLRRLVTLITQLAKELSNKGVLKTQAENTNKAAKKFMEENEKLKRILKSHGKDEECVLEAENKKLVEDQEKLKTELRKTSDALSKAQNDVMEMKMQSERLSKEYDQLLKEHSELQDRLERGNKKRL [BCAP29]	55.3

This collection of values is drawn from the supplement of paper PMC5998384.
